intrinsic clearance, rat liver microsomes vs 200 mL/min/kg: at or above is label 1, below is label 0.

Example cases with answers are listed next.
- Cc1ccc(CNC/C=C/c2ccccc2)cn1: label 1
- Clc1cccc(-c2nnc(Cn3cnc4ccccc43)o2)c1: label 0
- CN1CCN(S(=O)(=O)c2ccc(-c3cnc(N)c(C(=O)Nc4cccnc4)n3)cc2)CC1: label 1

Asked: Hello, I need to know if O=C(CNc1ccc(C(=O)N2CCCC2)cc1)N1CCCCC1 has measured intrinsic clearance, rat liver microsomes not below 200 mL/min/kg. Thanks!
Given back: label 0

Asked: Fc1ccc(CCNc2ncnc3ncccc23)cc1 ?
Given back: label 0

###

OBSERVED_PROPERTY: MDR1-MDCK efflux ratio
The reply should be a number, written without any unit.

Some solved cases for reference:
* CN1CCC(CNC(=O)c2ncoc2-c2ccc(F)cc2)CC1 | 1.76
* Cn1cc(Nc2nc(N)nc(-c3cccc(-n4ccc5cc(C6CC6)cc(F)c5c4=O)c3CO)n2)cn1 | 24.3
* CCCc1cc(O)nc(SCC(=O)N2CCN(C)CC2)n1 | 23.9
* CNC(=O)Cc1csc(-c2ccc(C)cc2)n1 | 0.708
* Cc1cc(C)c2c(N(C)CCC(C)C)ncnc2n1 | 0.862

Let's switch to this molecule now.
Asked: Tell me the measured MDR1-MDCK efflux ratio of CCS(=O)(=O)N1CC(CC#N)(n2cc(-c3ncnc4[nH]ccc34)cn2)C1 , please.
Given back: 202

###

Each entry below lists one item and its recorded MDR1-MDCK efflux ratio value.
Answer using only a numeral; do not append any unit.

Use the examples below as a reference point.
* O=C(NC1CC1)c1cccc2cccnc12 | 0.708
* C=CCn1cnc2c(Cl)cc(-c3ccc(C(=O)NC4CC4)o3)cc21 | 5.09
* COc1cc2c(cc1OC)-c1[nH]nc(NCc3c(Cl)cccc3Cl)c1C2=O | 3.05
* CCCc1nc2nc(C)c(NS(=O)(=O)c3ccc(C4CCCCC4)cc3)c(O)n2n1 | 50.3
* Cc1ccc(C(=O)N2CCC(Cc3ccccc3-c3ccccc3)(C(=O)N(C)C)CC2)s1 | 1.12

Switching to the query record.
Asked: Requested read-out: MDR1-MDCK efflux ratio. Entry: COc1ccc(-c2nn3c(-c4ccco4)nnc3c3ccccc23)cc1
Given back: 0.526

###

- EXPERIMENTAL_PARAMETERS: pH 6.8
Below, each entry is listed with its recorded log10 aqueous solubility.
Parameter value (number): base-10 log of aqueous solubility in µg/mL.

Some molecules with known log10 aqueous solubility results, for comparison:
* CC1CCN(CCNC(=O)c2ccncc2)CC1 | 1.53
* Cc1cc(NC(=O)CCc2c(C)nn(C)c2C)no1 | 1.71
* Cc1ccc(-c2ccnc(N3C[C@@H](C)NC[C@@H]3C)n2)c(C)n1 | 1.41
* CC(=O)Nc1ccc(C(=O)N2CCCCC2c2nc(N)ncc2-c2ccc(Cl)cc2)cc1 (stereo not drawn) | 1.76
* Cc1cccn(Cc2ccccc2F)c1=O | 1.45
* Cn1c(CNC(=O)Cc2cccc3ccccc23)nc2ccccc21 | 1.00
* Cc1cc2ccccc2n1CC(=O)N(C)Cc1cnn(C)c1 | 1.68
* CN(Cc1cccc(C#N)c1)Cc1ccccc1C#N | 1.47

Asked: # input molecule: CCN(CC)C(=O)c1ccc(NC(C)=O)cc1 ; wanted: its log10 aqueous solubility
Given back: 1.54

Asked: Next record, please: CN(CC(=O)Nc1cc(F)cc(F)c1)c1ccnc(C(N)=O)c1
Given back: 1.66

Asked: And the next one, Cc1ncsc1CN1CCCN(c2nc3ccccc3[nH]2)CC1 ?
Given back: 1.72
